Where these numbers come from: the supplement of paper PMC9170038

# Tested on: K4 kissing-loop RNA reporter;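 also: bound reporter read as fluorescence of individual clusters on recovered sequencing chips by microscopy, with normalized cluster intensities fitted with a binding model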
# assayDetails: apparent KD of K4 kissing-loop reporter; higher = weaker reporter binding
# conditionNotes: Eterna round: R107; input ligand: tryptophan 2.4 mM
Binary classification by apparent KD of K4 kissing-loop reporter, with 100 nM as an inclusive lower bound for 1; all other cases are -1.

Below, 4 sequences whose answers are already recorded.
chainSequence | systemName | assignedClass
UUAUUGAGCGUUUGUGAGAAGGCGUUCUUCAAGGAUAUCGACGUAACGAGAAGGUGAUUCGUUCCGAGUGAUGUUCGGUACGGGC [theeternabot_sameState_KL_FMN_A_4] | K4 kissing-loop RNA reporter | 1
GACAUACCUAUGGAGGGCCGAUCGAUCAUACGAGGACCGGUACGGCCGCCACUCGUGGGCAGUGAUGUUGACCCUGGGAGGUAAG | K4 kissing-loop RNA reporter | 1
GCGCGUCAUGUCAGCGGUGACACUGUCGAUACCAGCGCCGCAAGGCGCCCUUGGCAGCGACGUGCUGGAGUGAUGUUCCAGCGUC [#2 Exclusion - Theophylline A Attempt #22 (HarryS)] | K4 kissing-loop RNA reporter | 1
GCUAUGGUAGGAAGGAGCGCUUAUUCAUUAAUAAGAGUGAUGUUCGAUAAUGAAUAUUUAUAGCAGGUAGGUCGCCUACUAUAGC [Arginine B K4 2] | K4 kissing-loop RNA reporter | 1

State whether the measured apparent KD of K4 kissing-loop reporter reaches 100 nM, counting equality as reaching it, for UUAGAAGUAUACUUCAAGAGCUAUACUGAUACCAGAGUCAAUUGACUCCCUUGGCAGCGGAUCGAGUGAUGUUCGUAAGCUCAUU [AK4 SS Theophylline A] 1

State whether the measured apparent KD of K4 kissing-loop reporter reaches 100 nM, counting equality as reaching it, for AUUUGUUUAUGUGAUACCAGACUUUGCAGUGAUGUUGCAUUUAUUUUAGAAUUUUAUUUAGUCCCUUGGCAGCACUAUGUAUUUA [JR_SSTheophyB_Sub007] -1

---

# System: MS2 coat protein
# assayDetails: apparent KD of MS2 coat protein; designed switch direction (-1 OFF switch, 1 ON switch): -1; higher = weaker reporter binding
# conditionNotes: input ligand: FMN 200 uM
measuredEndpoint: apparent KD of MS2 coat protein (nM)
Report the figure in nM without appending any unit label.

Completed entries (count: 4):
chainSequence | unitsOfMeasure | apparent KD of MS2 coat protein
UAAAGUCAAGGAUAUGGAAGUCCAAACAUGAGGAUCACCCAUGUAAACACAUUGGGAAGCCCAGAAGGUGGCCGUA [Eternabot (L2) Solution 31] (Eterna round: R97, puzzle: Exclusion 5) | nM | 76.4
AAACAGCAAGGAUAUACGGGCAGUGCUUAUCAUAUCAUACAACAUGAGGAUCACCCAUGUAGAAGGUGCAACAA [Ex2 #1] (Eterna round: R97, puzzle: Exclusion 2) | nM | 108
AUCGUGCAGCAAAGCUGUACGAGUACAUGAGGAUCACCCAUGUAGGAUAUGGUACGCAAAGCGUGCUAGAAGGAUAUGAGAUUA [Mat - Exclusion NG 3 - Mod of JL - D97] (Eterna round: R96, puzzle: Exclusion NG 3) | nM | 38.1
CCAUAGGGAGGAUAUCCAAUAUAUGACAUGAGGAUCACCCAUGUUUCCACUCGUACCUCCGGAGAAGGCCCAUAAC [Ex5 #8] (Eterna round: R97, puzzle: Exclusion 5) | nM | 24.4

Lab note: next sequence to report on.
Give MS2 coat protein apparent KD of MS2 coat protein for GCAGGCUUUUGCUCGCCUUACAUGAGGAUCACCCAUGUGGGCCCGGGCCCGGGCCCGCCGGGCCCGGGCCCGGGCCC (Eterna round: R97, puzzle: Sensor, turn-off variant 1) 30.8
